# experimental-target: T1, MobAR (minMobA) (plasmid RSF1010, UniProt P07112 1-186)
# T1 sequence: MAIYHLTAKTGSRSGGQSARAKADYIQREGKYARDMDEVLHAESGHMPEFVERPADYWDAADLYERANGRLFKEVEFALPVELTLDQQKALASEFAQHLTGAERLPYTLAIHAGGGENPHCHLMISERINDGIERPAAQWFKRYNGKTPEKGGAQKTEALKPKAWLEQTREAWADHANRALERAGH
# protocol-summary: SDS-PAGE covalent complex; 5 mM Mg2+; Covalent complex: 15 uM oligo, 37 C 1 h, 5 mM MgCl2, 15 uM EDTA; TrwCR 10 mM Tris pH 7.6, 375 mM NaCl; MobAR 25 mM Tris pH 8.0, 225 mM NaCl; TraIR 10 mM Tris pH 7.6, 225 mM NaCl. EMSA: 50 nM oligo, 10 mM Tris pH 7.6, 100 mM NaCl, 1 mM EDTA, RT 30 min. Gel filtration: 100 mM Tris pH 7.6, 200 mM NaCl, EDTA
# condition-details: protein: recombinant; hairpin
// values below are reported binding signal
measurement-name: binding signal (% covalent complex)

1) CAGTTTCTCGAAGAGAAACCGGTAAGTGCGCCCTCCC (structured_DNA) [RSF1010 WQ(30+7)] | 43.9
2) CCGGTTGAAAACCGGTAAGTGCGCCCTCCCC (structured_DNA) [RSF1010 WQ(23+7)] | 41.4
3) GAGAAACCGGTAAGTGCGCCCTCCCCAGTTTCTC (structured_DNA) [RSF1010 HQ(18+16)] | 13.1
4) GAGAAACCGGTAAGTGCGCCCTCCCGATCAGTTTCTC (structured_DNA) [RSF1010 HQ(18+19)] | 9
